Reported pKd values follow for various binders
# subject.of.test: T1, human LAP-TGFB1 Fc fusion (human)
# T1 construct: also called human LAP-TGFβ1-Fc; human LAP-TGFβ-Fc isoform 1
# assay.name: SPR, antigen-Fc captured, Fab analyte
Note on units: pKd is unitless, being -log10 of a concentration expressed in mol/L.

// known answers, use as guide
QUERY: Using the record for 72BJN (Fab, V domains shown, also called VH S31Q W33D W99Y / VL T30Y R53I (72BJN)) VH: EVQLVQSGAEVKKPGASVKVSCKASGYTFTQYDMHWVRQAPGQGLEWMGRIDPQSGGIKYAQKFQGRATLTVDTSTSTAYMELSRLRSDDTAVYYCARYDYGGYFDVWGQGTLVTVSS VL: DIQMTQSPSSLSASVGDRVTITCRASQDIYNYLNWYQQKPGKAVKLLIYYTSILHSGVPSRFSGSGSGTDYTLTISSLQPEDFATYFCQQGDTLPWTFGQGTKLEIKR , report its pKd.
RESULT: 9.21

QUERY: Now the same for 69BJN (Fab, V domains shown, also called VH W33D I58T / VL T30Y R53V (69BJN)) VH: EVQLVQSGAEVKKPGASVKVSCKASGYTFTSYDMHWVRQAPGQGLEWMGRIDPQSGGTKYAQKFQGRATLTVDTSTSTAYMELSRLRSDDTAVYYCARWDYGGYFDVWGQGTLVTVSS VL: DIQMTQSPSSLSASVGDRVTITCRASQDIYNYLNWYQQKPGKAVKLLIYYTSVLHSGVPSRFSGSGSGTDYTLTISSLQPEDFATYFCQQGDTLPWTFGQGTKLEIKR
RESULT: 9.94

Then there is this binder:
QUERY: Using the record for 77BJN (Fab, V domains shown, also called VH W33D I58V / VL T30Y R53V T93E (77BJN)) VH: EVQLVQSGAEVKKPGASVKVSCKASGYTFTSYDMHWVRQAPGQGLEWMGRIDPQSGGVKYAQKFQGRATLTVDTSTSTAYMELSRLRSDDTAVYYCARWDYGGYFDVWGQGTLVTVSS VL: DIQMTQSPSSLSASVGDRVTITCRASQDIYNYLNWYQQKPGKAVKLLIYYTSVLHSGVPSRFSGSGSGTDYTLTISSLQPEDFATYFCQQGDELPWTFGQGTKLEIKR , report its pKd.
RESULT: 10.29
